All values here come from the NIST ThermoML archive (doi:10.1016/j.jct.2019.02.025).

- Particulars: 413.15 K; 101.33 kPa; Liquid; Vibrating tube method
Recorded endpoint: mass density (kg/m3)

{"Compound": "CCCCCCCCCCCC", "mass density, kg/m3": 659.32}
{"Compound": "CCCCCCCCCCCC(=O)OCC [ethyl dodecanoate]", "mass density, kg/m3": 767.94}
{"Compound": "CCCCCC(=O)OC [methyl hexanoate]", "mass density, kg/m3": 763.86}
{"Compound": "CCCCCCCCCCCCCC(=O)OCC [ethyl tetradecanoate]", "mass density, kg/m3": 770.21}
{"Compound": "CCCCCCC(=O)OCC [ethyl heptanoate]", "mass density, kg/m3": 758.65}
{"Compound": "CCCCCCCCCC(=O)OCC [ethyl decanoate]", "mass density, kg/m3": 765.29}
{"Compound": "CCCCCCCC(=O)OC [methyl octanoate]", "mass density, kg/m3": 768.72}
{"Compound": "CCCCCC(=O)OCC [ethyl hexanoate]", "mass density, kg/m3": 754.53}
{"Compound": "CCCCCCC(=O)OC [methyl heptanoate]", "mass density, kg/m3": 766.7}
{"Compound": "CCCCCCCC(=O)OCC [ethyl octanoate]", "mass density, kg/m3": 761.18}
{"Compound": "CCCCCCCCCCCCCC(=O)OC [methyl tetradecanoate]", "mass density, kg/m3": 775.91}
{"Compound": "CCCCCCCCCC(=O)OC [methyl decanoate]", "mass density, kg/m3": 771.74}
{"Compound": "CCCCCCCCCCCC(=O)OC [methyl dodecanoate]", "mass density, kg/m3": 774.39}
